Below, each entry is listed with its recorded pIC50.
# system: CDK13 (Homo sapiens (Human), UniProt Q14004)
# Sequence (Q14004 whole entry, looked up): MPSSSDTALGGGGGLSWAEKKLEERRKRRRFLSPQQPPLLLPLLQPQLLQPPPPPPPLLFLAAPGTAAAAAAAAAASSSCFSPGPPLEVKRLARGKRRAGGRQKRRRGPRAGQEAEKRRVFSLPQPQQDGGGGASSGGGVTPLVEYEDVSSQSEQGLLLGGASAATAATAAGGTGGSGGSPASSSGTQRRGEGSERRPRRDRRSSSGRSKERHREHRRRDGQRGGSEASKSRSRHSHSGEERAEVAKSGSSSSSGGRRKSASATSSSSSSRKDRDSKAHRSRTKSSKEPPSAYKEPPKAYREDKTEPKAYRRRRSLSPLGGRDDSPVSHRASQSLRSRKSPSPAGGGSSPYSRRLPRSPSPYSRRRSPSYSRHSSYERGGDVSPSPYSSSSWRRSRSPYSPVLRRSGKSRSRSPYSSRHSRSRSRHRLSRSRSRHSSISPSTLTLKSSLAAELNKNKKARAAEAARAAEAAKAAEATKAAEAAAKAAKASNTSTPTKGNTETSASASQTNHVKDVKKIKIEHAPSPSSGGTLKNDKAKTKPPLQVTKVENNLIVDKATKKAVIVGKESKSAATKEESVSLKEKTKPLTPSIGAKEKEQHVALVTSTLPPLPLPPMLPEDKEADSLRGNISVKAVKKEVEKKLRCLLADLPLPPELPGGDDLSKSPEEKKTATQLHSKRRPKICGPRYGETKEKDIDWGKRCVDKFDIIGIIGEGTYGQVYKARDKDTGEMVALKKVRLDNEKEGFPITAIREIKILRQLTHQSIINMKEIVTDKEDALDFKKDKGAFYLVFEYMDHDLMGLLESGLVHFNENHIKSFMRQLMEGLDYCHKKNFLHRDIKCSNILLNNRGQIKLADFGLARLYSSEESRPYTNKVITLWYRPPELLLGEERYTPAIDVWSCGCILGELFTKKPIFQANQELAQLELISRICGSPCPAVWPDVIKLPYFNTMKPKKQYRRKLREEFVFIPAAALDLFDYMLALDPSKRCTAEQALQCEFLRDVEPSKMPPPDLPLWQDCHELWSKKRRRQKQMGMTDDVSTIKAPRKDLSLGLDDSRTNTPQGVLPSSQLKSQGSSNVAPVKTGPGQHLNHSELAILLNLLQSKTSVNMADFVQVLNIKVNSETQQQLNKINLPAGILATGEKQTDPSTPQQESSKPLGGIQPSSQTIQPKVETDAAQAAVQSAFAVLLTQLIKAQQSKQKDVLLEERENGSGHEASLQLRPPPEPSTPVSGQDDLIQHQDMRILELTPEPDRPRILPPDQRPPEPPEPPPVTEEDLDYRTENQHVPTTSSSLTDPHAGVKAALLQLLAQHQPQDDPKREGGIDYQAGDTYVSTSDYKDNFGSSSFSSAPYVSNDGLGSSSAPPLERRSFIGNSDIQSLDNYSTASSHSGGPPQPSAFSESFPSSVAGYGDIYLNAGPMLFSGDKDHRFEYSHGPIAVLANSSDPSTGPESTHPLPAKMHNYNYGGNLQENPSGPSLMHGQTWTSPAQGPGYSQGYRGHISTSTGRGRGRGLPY
# Sequence (O75909 whole entry partner, looked up): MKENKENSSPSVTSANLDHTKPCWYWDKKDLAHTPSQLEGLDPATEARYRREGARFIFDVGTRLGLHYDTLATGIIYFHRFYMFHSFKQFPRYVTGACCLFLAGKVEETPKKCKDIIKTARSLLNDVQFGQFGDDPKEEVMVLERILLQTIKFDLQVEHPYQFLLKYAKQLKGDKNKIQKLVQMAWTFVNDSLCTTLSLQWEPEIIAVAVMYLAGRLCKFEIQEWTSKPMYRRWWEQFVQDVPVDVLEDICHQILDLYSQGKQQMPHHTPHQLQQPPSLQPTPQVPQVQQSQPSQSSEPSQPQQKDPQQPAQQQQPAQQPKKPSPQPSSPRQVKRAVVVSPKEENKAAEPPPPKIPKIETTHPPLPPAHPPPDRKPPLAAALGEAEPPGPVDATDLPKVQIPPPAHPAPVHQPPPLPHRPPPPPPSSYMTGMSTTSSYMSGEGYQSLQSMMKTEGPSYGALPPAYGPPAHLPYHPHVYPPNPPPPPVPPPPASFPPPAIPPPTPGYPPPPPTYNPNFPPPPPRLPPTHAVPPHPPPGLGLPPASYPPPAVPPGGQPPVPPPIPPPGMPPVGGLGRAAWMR
# assayNotes: LANCE Ultra kinase assay, CDK13
# Format: biochemical
# conditionSummary: 30 nM enzyme, 60 min pre-incubation, ULight-4E-BP1 150 nM; read-out: CDK13 IC50
pIC50: −log10 of the molar value.

// known answers, use as guide
C=CC(=O)Nc1cc(N(C(=O)N[C@@H](C)c2ccccc2)[C@H]2CC[C@H](Nc3ccc(C#N)cn3)CC2)ccc1N1CCN(C)[C@@H](C)C1 | 7.30 to 7.82
C=CC(=O)Nc1cc(N(C(=O)NCc2ccccc2Cl)[C@H]2CC[C@H](Nc3ccc(C#N)cn3)CC2)ccc1N1CCN(C)[C@@H](C)C1 | > 7.82
C=CC(=O)Nc1cc(N(C(=O)NCc2cnn(C)c2)[C@H]2CC[C@H](Nc3ccc(C#N)cn3)CC2)ccc1N1CCN(C)[C@@H](C)C1 | 6.30 to 7.30

input: Please give the measured pIC50 for this compound: C=CC(=O)Nc1cc(N(C(=O)NCc2ccccc2)[C@H]2CC[C@H](Nc3ccc(C(F)(F)F)cn3)CC2)ccc1N1CCN(C)[C@@H](C)C1
output: > 7.82

input: Also check C=CC(=O)Nc1cc(N(C(=O)NC2CC2)[C@H]2CC[C@H](Nc3ccc(C#N)cn3)CC2)ccc1N1CCN(C)[C@@H](C)C1
output: 6.30 to 7.30

input: Also check C=CC(=O)Nc1cc(N(C(=O)NCc2ccccc2)[C@H]2CC[C@H](Nc3ccc(C#N)cn3)CC2)ccc1N1CCOCC1
output: > 7.82

---

# system: UniProt:Q14004
# assayNotes: LANCE Ultra kinase assay, CDK13
# Type: biochemical
# conditionSummary: 30 nM enzyme, 60 min pre-incubation, ULight-4E-BP1 150 nM; read-out: CDK13 IC50
assayEndpoint: IC50

// known answers, use as guide
C=CC(=O)Nc1cc(N(C(=O)NCc2ccccc2)[C@H]2CC[C@H](Nc3ccc(C#N)cn3)CC2)ccc1-c1ccc(=O)n(C)c1 [YJZ5028] | < 15 nM
C=CC(=O)Nc1cc(N(C(=O)NCc2cocn2)[C@H]2CC[C@H](Nc3ccc(C#N)cn3)CC2)ccc1N1CCN(C)[C@@H](C)C1 [YJZ1063] | 50 to 500 nM
C=CC(=O)Nc1cccc(N(C(=O)NCc2ccccc2)[C@H]2CC[C@H](Nc3ccc(C#N)cn3)CC2)c1 [YJZ4156] | 50 to 500 nM
C=CC(=O)Nc1cc(N(C(=O)NCc2ccccc2)[C@H]2CC[C@H](Nc3ccc(C#N)cn3)CC2)ccc1N1C[C@H]2C[C@@H]1CN2C [YJZ6096] | 15 to 50 nM
C=CC(=O)Nc1cc(N(C(=O)NCc2cccc(F)c2)[C@H]2CC[C@H](Nc3ccc(C#N)cn3)CC2)ccc1N1CCN(C)[C@@H](C)C1 [YJZ9177] | < 15 nM

input: Please give the measured IC50 for this compound: C=CC(=O)Nc1cc(N(C(=O)NCc2ccccc2)[C@H]2CC[C@H](Nc3ccc(C#N)cn3)CC2)ccc1N1CCC(N(C)C)C1 (stereo partly drawn) [YJZ6082]
output: 50 to 500 nM

---

# system: CDK13 (Homo sapiens (Human), UniProt Q14004)
# assayNotes: LANCE Ultra kinase assay, CDK13
# Assay type: biochemical
# conditionSummary: 30 nM enzyme, 60 min pre-incubation, ULight-4E-BP1 150 nM; read-out: CDK13 IC50
pIC50: −log10 of the molar value.
Below, each entry is listed with its recorded pIC50.

C=CC(=O)Nc1cc(N(C(=O)NCc2ccccc2)[C@H]2CC[C@H](Nc3ccc(C#N)cn3)CC2)ccc1N1CCN(C)CC1 | 6.30 to 7.30

The record that follows has no pIC50 shown yet.
input: Please give the measured pIC50 for this compound: C=CC(=O)Nc1cc(N(C(=O)NCc2ccc(F)cc2)[C@H]2CC[C@H](Nc3ccc(C#N)cn3)CC2)ccc1N1CCN(C)[C@@H](C)C1
output: 7.30 to 7.82

Reference source: patent US20250100994A1
